# EXPERIMENTAL TARGET: Aromatase (Homo sapiens, UniProt P11511)
# ASSAY NOTES: Inhibition of human recombinant aromatase
QUANTITY MEASURED: IC50
Please give the number followed by its unit.

Challenge: Could you share which IC50 value was measured for "COc1cc(O)c2c(c1)O[C@]1(C)[C@@H](O)[C@@H](C)C[C@H](O)[C@@H]1C2=O" ?
Response given: 28.3 µM

----------
# Test system: Cyp1A (Rattus norvegicus)
# ASSAY NOTES: Inhibition of beta-naphthoflavone-induced Cyp1A in rat H4IIE cell at 50 uM
# ASSAY SETUP: H4IIE cells with beta-naphthoflavone-induced Cyp1A
Below, each of the molecules is paired with its reported inhibition at 50 µM value.
Number first, unit second: that is the form wanted.

Challenge: Form field: inhibition at 50 µM recorded for "Cc1cc(O)c(C(=O)c2c(O)cccc2O)c(C(=O)O)c1" with Cyp1A (Rattus norvegicus) (enter value)
Response given: 28%

Here is the next item to consider.
Challenge: # value lookup — system Cyp1A (Rattus norvegicus), readout inhibition at 50 µM, item "Cc1cc(O)c2c(c1)O[C@]1(C)[C@@H](O)[C@@H](O)C[C@H](O)[C@@H]1C2=O"
Response given: 40%

----------
# EXPERIMENTAL TARGET: Aromatase (Homo sapiens)
# Sequence (P11511 whole entry): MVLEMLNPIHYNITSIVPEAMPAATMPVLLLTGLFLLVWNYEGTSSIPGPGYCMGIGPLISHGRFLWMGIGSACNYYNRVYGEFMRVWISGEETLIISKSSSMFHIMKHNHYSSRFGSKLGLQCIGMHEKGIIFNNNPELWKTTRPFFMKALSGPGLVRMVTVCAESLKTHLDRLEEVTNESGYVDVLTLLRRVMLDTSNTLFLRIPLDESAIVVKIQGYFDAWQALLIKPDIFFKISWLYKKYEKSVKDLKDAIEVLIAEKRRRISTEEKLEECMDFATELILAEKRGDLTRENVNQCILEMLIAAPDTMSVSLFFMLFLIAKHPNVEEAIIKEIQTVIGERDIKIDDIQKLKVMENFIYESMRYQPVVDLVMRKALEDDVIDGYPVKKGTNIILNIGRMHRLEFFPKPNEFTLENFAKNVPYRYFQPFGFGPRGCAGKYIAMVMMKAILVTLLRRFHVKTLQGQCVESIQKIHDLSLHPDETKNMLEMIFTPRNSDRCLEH
# ASSAY NOTES: Inhibition of human recombinant aromatase at 50 uM
QUANTITY MEASURED: inhibition at 50 µM (%)
Report only the number, with the unit % understood.

In the examples that follow, each entry is paired with its recorded inhibition at 50 µM.
Challenge: Consider the compound shown here: "Cc1cc(O)c2c(c1)O[C@]1(C)[C@@H](O)[C@@H](O)C[C@H](O)[C@@H]1C2=O" What is its recorded inhibition at 50 µM?
Response given: 32

Challenge: May I ask what inhibition at 50 µM has been recorded for "Cc1cc(O)c(C(=O)c2c(O)cccc2O)c(C(=O)O)c1" ?
Response given: 25

Challenge: Given the entry "C[C@H]1C[C@H](O)[C@@H]2C(=O)c3c(O)cccc3O[C@]2(C)[C@H]1O" , report its measured inhibition at 50 µM.
Response given: 9

Others:
Challenge: Form field: reported inhibition at 50 µM of "Cc1cc(C(=O)O)c2c(=O)c3c(O)cccc3oc2c1"
Response given: 37
